Test system: L1210 leukemia ip in BDF1 mice, survival T/C
Test: NCI In Vivo Anticancer Drug Screen. Data for tumor model L1210 Leukemia (intraperitoneal) in B6D2F1 (BDF1) mice
Settings: endpoint: mean survival time; dose: 200.0 mg/kg/injection; schedule: Q01DX001 (ip); vehicle: saline; higher = longer survival
Toxic doses and inconclusive results are not listed.
Can you tell me T/C for the items I'm about to list?

Ask | Reported T/C, compound O=C(CCCC(=O)N/N=C/c1cc(Cl)ccc1[N+](=O)[O-])N/N=C\c1cc(Cl)ccc1[N+](=O)[O-] : ____
Reply | 95 % of control

Ask | Item under review: CCC1CN1P1(=O)OCC(C)(C(=O)OC)CO1 (stereo not given) . Reported T/C?
Reply | 108 % of control

Ask | What value of T/C has been recorded for this entry: CCCCSc1n[nH]c(=O)[nH]c1=O
Reply | 92 % of control

Ask | May I ask what T/C has been recorded for OCC1OC(n2c(N3CCCCC3)nc3ccccc32)C(O)C1O (stereo not given) ?
Reply | 105 % of control

Ask | So what does the record say about T/C for C[N+]1(C)C2CCC1[C@H](C(=O)[O-])[C@@H](O)C2 (stereo not given in full) ?
Reply | 93 % of control

Ask | State the recorded T/C for this entry: CC(=O)OCCOC(C)=O
Reply | 97 % of control

Ask | Which measured T/C value corresponds to OCC(O)C(O)C(O)C(O)C(c1ccc(Br)cc1)c1ccc(Br)cc1 (stereo not given) ?
Reply | 101 % of control

Ask | // lookup T/C for O=C(CCCC(=O)NNC(=O)NC(=O)C(Cl)(Cl)Cl)NNC(=O)NC(=O)C(Cl)(Cl)Cl
Reply | 102 % of control

Ask | State the recorded T/C for this entry: N#Cc1ccc(CCc2ccccc2)cc1
Reply | 101 % of control

Ask | Given the compound O=C(O)c1ccccc1-c1c2ccc(=O)c(Br)c-2oc2c(Br)c(O)ccc12 , what is its reported T/C?
Reply | 98 % of control

Ask | Sample Nc1cccc(/C=C/C=C\c2cccc([N+](=O)[O-])c2)c1 — what was its T/C?
Reply | 94 % of control

Ask | Looking for the measured T/C of CCCCn1c(N)cc(=O)[nH]c1=S , can you help?
Reply | 106 % of control

Ask | Quick one: T/C for COc1ccc(OCCC(=O)O)cc1 ?
Reply | 93 % of control

Ask | Dear colleague, I am looking for the recorded T/C of the following compound: O=C(Cc1ccc2c(c1)OCO2)c1cn(C(=O)Cc2ccc3c(c2)OCO3)c2ccccc12
Reply | 93 % of control

Ask | // lookup T/C for NCCCCC(N)C(=O)NCCCCCCNCCCCCCNC(=O)C(N)CCCCN (stereo not given)
Reply | 103 % of control

Ask | Query (compound): N#C/C(C(N)=O)=C1\CCCc2sccc21 ; field requested: T/C
Reply | 95 % of control

Ask | What value of T/C has been reported for the following compound? O=S(=O)(Nc1ncccn1)c1ccc(N=Nc2ccc(O)c3ncccc23)cc1
Reply | 103 % of control

Ask | Data request, read-out T/C, for CCCCCCCNC(=O)CI
Reply | 111 % of control

Ask | Fill blank: measured T/C of the compound O=S(=O)(O)c1ccc(-c2nc3ccccc3[nH]2)cc1 is ____.
Reply | 93 % of control

Ask | Please give the measured T/C for this compound: COc1nc(=O)n(C2CCCO2)cc1C (stereo not given)
Reply | 104 % of control

Ask | What value of measured T/C is listed for CS(=O)(=O)NC[C@H](Cl)[C@@H](Cl)CNS(C)(=O)=O ?
Reply | 102 % of control

Ask | # query: T/C of entry Cn1c(=O)c2c(nc(OCC3CCCO3)n2C)n(C)c1=O (stereo not given)
Reply | 100 % of control

Ask | Item CCOC(=O)c1ccc(C)[n+]([O-])c1 has what recorded T/C?
Reply | 100 % of control

Ask | // returns reported T/C for input O=C(CN1C(=O)CCC1=O)Oc1ccc([N+](=O)[O-])cc1
Reply | 98 % of control

Ask | What does the record list as T/C for O=C(O)[C@@H]1C[C@@H](O)CN1 ?
Reply | 100 % of control
